MEASURED_METRIC: melting point

>>> df
                                   compound  experimental_value
0  CC(C)(C)[C@H]1c2ccccc2-c2ccccc2N1S(=O)(=O)c1ccc(O)cc1 [Example 16]       187 to 189 °C
1  CC1c2ccc(F)cc2-c2cc(F)ccc2N1S(=O)(=O)c1ccc(O)cc1 (centres unmarked) [Example 116]       194 to 196 °C
2  C[C@H]1c2ccccc2-c2ccc(Cl)cc2N1S(=O)(=O)c1ccc(O)cc1 [Example 123]     213.5 to 220 °C
3  CCC1c2cc(F)ccc2-c2cc(Br)ccc2N1S(=O)(=O)c1ccc(O)cc1 (centres unmarked) [Example 44]       220 to 221 °C
4  Cc1cc(S(=O)(=O)N2c3ccccc3-c3cccc(O)c3C2C)ccc1O (centres unmarked) [Example 38]              258 °C

## Input What value of melting point has been reported for the following compound? CCC1c2cc(F)ccc2-c2cc(C)ccc2N1S(=O)(=O)c1ccc(O)cc1 (centres unmarked) [Example 51]
## Output 197 to 200 °C

## Input What value of melting point has been reported for the following compound? CC1c2cc(F)ccc2-c2cc(Br)ccc2N1S(=O)(=O)c1ccc(O)cc1 (centres unmarked) [Example 45]
## Output 237 to 239 °C

## Input What value of melting point has been reported for the following compound? CCC(=O)Oc1ccc(S(=O)(=O)N2c3ccccc3-c3ccc(F)cc3C2CC)cc1 (centres unmarked) [Example 54]
## Output 111 to 112 °C

====

System: IL-6
Test: IL-6 test procedure (IL-6 ELISA of media) in Ad5-wt-ERα infected HAECT-1 cells
Type: cell-based, human
Settings: Homo sapiens, HAECT1, IL-1β, read-out: Interleukin-6 Efficacy (%)
MEASURED_METRIC: Emax

These solved cases illustrate the format of a correct answer.
                                   molecule  measured_metric  experimental_value
0  CC1c2ccccc2-c2ccc(Cl)cc2N1S(=O)(=O)c1cccc(O)c1 (stereo not shown)             Emax                103%
1  CC1c2ccccc2-c2ccc(F)cc2N1S(=O)(=O)c1ccc(O)cc1 (stereo not shown)             Emax              > 100%
2  C[C@H]1c2cc(F)ccc2-c2ccc(F)cc2N1S(=O)(=O)c1cccc(O)c1 (single isomer, unassigned)             Emax                156%
3  C[C@H]1c2cc(F)ccc2-c2ccccc2N1S(=O)(=O)c1ccc(O)cc1             Emax                108%
4  C[C@@H]1c2ccccc2-c2ccc(Cl)cc2N1S(=O)(=O)c1ccc(O)cc1O             Emax                 19%

## Input What is its Emax for IL-6? Entry: "C[C@H]1c2ccccc2-c2ccc(F)cc2N1S(=O)(=O)c1ccc(O)cc1O"
## Output 114%

## Input What is its Emax for IL-6? Entry: C[C@H]1c2cc(F)ccc2-c2ccc(F)cc2N1S(=O)(=O)c1ccc(O)cc1 (single isomer, unassigned)
## Output 196%

## Input What is its Emax for IL-6? Entry: CC1c2ccc(F)cc2-c2cc(F)ccc2N1S(=O)(=O)c1ccc(O)cc1 (stereo not shown)
## Output 99%

## Input What is its Emax for IL-6? Entry: C[C@@H]1c2cc(F)ccc2-c2ccc(F)cc2N1S(=O)(=O)c1ccc(O)cc1 (single isomer, unassigned)
## Output 139%

## Input What is its Emax for IL-6? Entry: "C[C@@H]1c2ccccc2-c2ccc(Cl)cc2N1S(=O)(=O)c1cccc(O)c1"
## Output 35%

====

MEASURED_METRIC: melting point

## Input What value of melting point has been reported for the following compound? "C[C@@H]1c2ccccc2-c2ccc(Cl)cc2N1S(=O)(=O)c1cccc(O)c1"
## Output 220.9 to 223 °C

====

System: ER/NF-κB
Assay: ER/NF-κB luciferase reporter in Ad5-wt-ERα infected HAECT-1 cells
Format: cell-based, human
Details: Homo sapiens, HAECT1, IL-1β, read-out: ER/NFκB IC50
MEASURED_METRIC: IC50 (µM)
Numbers only; they are read as µM.

>>> df
                                   compound  target_under_test  experimental_value
0  Cc1cc(S(=O)(=O)N2c3ccccc3-c3ccccc3C2C)ccc1O (stereo not drawn)           ER/NF-κB               0.433
1  Cc1ccc2c(c1)C(C)N(S(=O)(=O)c1ccc(O)cc1)c1ccccc1-2 (stereo not drawn)           ER/NF-κB               0.257
2  CCC1c2cc(F)ccc2-c2cc(Br)ccc2N1S(=O)(=O)c1ccc(O)cc1 (stereo not drawn)           ER/NF-κB               0.085
3  CCC1c2ccccc2-c2ccccc2N1S(=O)(=O)c1ccc(O)cc1 (stereo not drawn)           ER/NF-κB               0.529

Shifting focus to the compound that follows.
## Input What is its IC50 for ER/NF-κB? Entry: CC1c2ccccc2-c2ccccc2N1S(=O)(=O)c1ccc(O)cc1 (stereo not drawn)
## Output 0.422

====

melting point reference

These solved cases illustrate the format of a correct answer.
>>> df
                                   compound  experimental_value
0  CC1c2cc(F)ccc2-c2ccccc2N1S(=O)(=O)c1ccc(O)c(O)c1 (stereo not drawn)       165 to 170 °C
1  CCC1c2cc(F)ccc2-c2ccccc2N1S(=O)(=O)c1ccc(OC(=O)CC(C)(C)C)cc1 (stereo not drawn)              128 °C
2  CC1c2ccccc2-c2ccccc2N1S(=O)(=O)c1ccc(O)c(F)c1 (stereo not drawn)       172 to 174 °C
3  CC1c2ccc(F)cc2-c2ccc(F)cc2N1S(=O)(=O)c1cccc(O)c1 (stereo not drawn)     167.2 to 173 °C

## Input What value of melting point has been reported for the following compound? CC(C)(C)C1c2ccccc2-c2ccccc2N1S(=O)(=O)c1ccc(O)cc1 (stereo not drawn)
## Output 192 to 194 °C

## Input What value of melting point has been reported for the following compound? CC1c2cc(Cl)ccc2-c2ccccc2N1S(=O)(=O)c1ccc(O)cc1 (stereo not drawn)
## Output 176 to 178 °C

## Input What value of melting point has been reported for the following compound? "C[C@H]1c2cc(F)ccc2-c2ccccc2N1S(=O)(=O)c1ccc(OS(N)(=O)=O)cc1"
## Output 166.5 to 167 °C

## Input What value of melting point has been reported for the following compound? O=S(=O)(c1ccc(O)cc1)N1c2ccc(Br)cc2-c2ccccc2C1c1ccccc1 (stereo not drawn)
## Output 262 to 265 °C

## Input What value of melting point has been reported for the following compound? CC1c2ccc(F)cc2-c2cc(F)ccc2N1S(=O)(=O)c1cccc(O)c1 (stereo not drawn)
## Output 165.5 to 171 °C

## Input What value of melting point has been reported for the following compound? CC[C@@H](C)[C@H]1c2ccccc2-c2ccccc2N1S(=O)(=O)c1ccc(O)cc1 (relative stereo)
## Output 115 to 118 °C

## Input What value of melting point has been reported for the following compound? O=S(=O)(c1ccc(O)c(Br)c1)N1c2ccc(Br)cc2-c2ccccc2C1c1ccccc1 (stereo not drawn)
## Output 237 to 239 °C

## Input What value of melting point has been reported for the following compound? CC1c2ccc(O)cc2-c2ccccc2N1S(=O)(=O)c1ccc(O)cc1 (stereo not drawn)
## Output 212 °C

====

System: ER/NF-κB
Experiment: ER/NF-κB luciferase reporter in Ad5-wt-ERα infected HAECT-1 cells
Format: cell-based, human
Settings: Homo sapiens, HAECT1, IL-1β, read-out: ER/NFκB Efficacy (%)*
MEASURED_METRIC: Emax (%)
Numbers only; they are read as %.

These solved cases illustrate the format of a correct answer.
>>> print(df.to_string())
                                   compound  measured_metric  unit_of_measure  experimental_value
0  CCC1c2ccccc2-c2cc(-c3cccc(OC)c3)ccc2N1S(=O)(=O)c1ccc(O)cc1 (centres unmarked) [Example 29]             Emax                %                  86
1  CCC1c2ccccc2-c2cc(Br)ccc2N1S(=O)(=O)c1ccc(O)c(C)c1 (centres unmarked) [Example 21]             Emax                %                  85
2  Cc1cc(S(=O)(=O)N2c3ccccc3-c3ccc(F)cc3C2C)ccc1O (centres unmarked) [Example 35]             Emax                %                  94
3  C[C@@H]1c2cc(F)ccc2-c2ccccc2N1S(=O)(=O)c1ccc(O)cc1 [Example 34]             Emax                %                  89
4  Cc1cc(S(=O)(=O)N2c3ccccc3-c3ccccc3C2C)cc(C)c1O (centres unmarked) [Example 59]             Emax                %                 102

## Input What value of Emax has been reported for the following compound? CC1c2cc(F)ccc2-c2ccccc2N1S(=O)(=O)c1cccc(O)c1 (centres unmarked) [Example 48]
## Output 107

## Input What value of Emax has been reported for the following compound? CC(C)(C)C1c2ccccc2-c2cc(Br)ccc2N1S(=O)(=O)c1ccc(O)cc1 (centres unmarked) [Example 17]
## Output 76

## Input What value of Emax has been reported for the following compound? C[C@H]1c2ccccc2-c2ccccc2N1S(=O)(=O)c1ccc(O)cc1 (single isomer, unassigned) [Example 2]
## Output 103
